Overview of reported GI50 across a group of compounds:
# System: SR
# experiment description: NCI tumour cell line growth inhibition, 48 h
Activity calls are given as the source filed them. Cut-off read from the data, not from the text of the source: active = GI50 up to about 1.1 µM and inactive = higher.

# compound, GI50
measured = [
    ("COc1ccc(C(c2ccccc2)(c2ccc(OC)cc2)N2C(=O)NC3C(CCCCC(=O)NCCCCCCOP(OCCC#N)N(C(C)C)C(C)C)SCC32)cc1 (stereo not given)", "8.07 µM (inactive)"),
    ("COc1ccc(-c2c(N)[n+]([O-])c3ccccc3[n+]2[O-])cc1OC", "> 100 µM (inactive)"),
    ("Fc1cc(-c2cc(-c3ccccc3)no2)c(Cl)cc1Cl", "13.9 µM (inactive)"),
    ("CN(C)CC1CCCCCCCCCC(CN(C)C)C1=O (stereo not given)", "17.6 µM (inactive)"),
    ("COC(=O)C1OC(SCCN)C(O)C(O)C1O (stereo not given)", "> 100 µM (inactive)"),
    ("Cc1cc2nn(C3CCCCO3)nc2cc1C (stereo not given)", "> 100 µM (inactive)"),
    ("O=C1c2c(Br)sc(Br)c2[C@H]2NC(=S)O[C@@H]12", "2.41 µM (inactive)"),
    ("O=[N+]([O-])c1ccc2c(c1)/C(=N/N=C1c3ccccc3Cc3ccccc31)c1cc([N+](=O)[O-])cc([N+](=O)[O-])c1-2", "4.61 µM (inactive)"),
    ("Oc1ccc2c(O)cc(-c3ccccc3)nc2c1", "38.1 µM (inactive)"),
    ("COc1cc2c(cc1OCCCCOc1cc(-c3ccc(F)cc3)nc(C)n1)N=C[C@@H]1CCCN1C2=O", "0.16 µM (active)"),
]

* * *

# Tested on: SF-295
# experiment description: NCI tumour cell line growth inhibition, 48 h
The source made the active and inactive calls. No stated cut-off is given here; in the data, active = GI50 up to about 1.1 µM and inactive = higher.
Labels: active, inactive

# compound, label
rows = [
    ("CC(=O)Oc1c(C)c2c(c3ccccc13)OC(C)(C)C2", "inactive"),
    ("Cc1ccc(/C=C/C(=O)c2sc(C(N)=S)nc2C)cc1", "inactive"),
    ("COc1cccc(NC(=O)C(C)(C)C)c1C=O", "inactive"),
    ("C(=N/NC1=NCCN1)/c1c2ccccc2c(/C=N\\NC2=NCCN2)c2ccccc12", "active"),
    ("NNc1[nH]c(=S)[nH]c1C(N)=O", "inactive"),
    ("c1ccc2cc3c(cc2c1)nc1ccccn13", "inactive"),
    ("C/C(=N/NC(=S)Nc1ccccc1C)c1ccccn1", "active"),
    ("C=C1C=CC2(Br)OC3CC(C)(Cl)C(Br)CC13C2(C)C (configuration not stated)", "inactive"),
    ("Cc1ccccc1/N=C/N(C)C", "inactive"),
    ("C=CC(=O)N1C/C(=C\\c2ccc(Cl)c(Cl)c2)C(=O)/C(=C/c2ccc(Cl)c(Cl)c2)C1", "active"),
    ("COC1=CCC2=C(CCN(C(=O)C3CCC3)C2Cc2ccc(OC)c(O)c2)C1 (configuration not stated)", "inactive"),
    ("C=CC/C=C/Cc1csc(C(C)(C)C(O)C/C=C/C(=C)CCNC(=O)OC)n1 (configuration not stated)", "inactive"),
]

* * *

# Test system: OVCAR-5
# experiment description: NCI tumour cell line growth inhibition, 48 h
Calls of active or inactive are those of the source. No stated cut-off is given here; in the data, active = GI50 up to about 1.1 µM and inactive = higher.
Labels: active, inactive

# compound, label
data = [
    ("O=c1c2ncn(C3CCCO3)c2n(-c2ccccc2)c(=S)n1-c1ccccc1 (centres undefined)", "inactive"),
    ("NC(=O)c1ncn(Cc2ccccc2)c1CNC(N)=S", "inactive"),
    ("CN(C)/C=N/S(=O)(=O)c1nn2c(C=O)c(-c3ccc([N+](=O)[O-])cc3)nc2s1", "inactive"),
    ("O=C(/C=C1\\Nc2ccccc2C(=O)N1c1ccccc1Cl)c1ccccc1", "inactive"),
    ("C=CCOC(=O)c1c(C)[n+]([O-])c2cc(Cl)c(Cl)cc2[n+]1[O-]", "inactive"),
    ("C[Si](C)(C)C1=C2C(=O)c3ccccc3C(=O)C2=C([Si](C)(C)C)[C@@H]2CCCC[C@H]12", "inactive"),
    ("C=C1C(=O)OC2CC3(C)C=CC(=O)C(=C)C3CC12 (centres undefined)", "inactive"),
    ("CCOc1cc2c(c(OCC)c1O)CC[C@@H]1[C@@H]2CC[C@]2(C)[C@@H](O)CC[C@@H]12", "inactive"),
    ("O=C(N/N=C\\c1ccc([N+](=O)[O-])cc1)Nc1ccccc1", "inactive"),
    ("CCc1n[nH]c(=O)n1N", "inactive"),
    ("COC(=O)C(=O)C(C(=O)C(=O)Nc1ccc([N+](=O)[O-])cc1[N+](=O)[O-])c1nc2ccc([N+](=O)[O-])cc2nc1O (centres undefined)", "inactive"),
    ("CCOC(=O)C1CCCc2sc(N)c(C#N)c21 (centres undefined)", "inactive"),
    ("COc1cc2c(c(OC)c1OC)-c1ccc(SC)c(=O)cc1[C@@H](NCc1ccccc1[N+](=O)[O-])CC2", "active"),
    ("Cn1cc2ccccc2c1-c1nc(F)nc(Nc2ccc(N)cc2)n1", "inactive"),
]

* * *

# Tested on: RPMI-8226
# experiment description: NCI tumour cell line growth inhibition, 48 h
Calls of active or inactive are those of the source. Cut-off read from the data, not from the text of the source: active = GI50 up to about 1.1 µM and inactive = higher. Residues, ends and D or L forms follow the SMILES beside them. *: point of attachment. Fmoc = O=C(OCC1c2ccccc2-c2ccccc21)*; Boc = CC(C)(C)OC(=O)*
Labels: YES for active, NO for inactive

# compound, label
data = [
    ("COc1ccc2c(C)cc(N/N=C/c3ccc(OC)c4ccccc34)nc2c1", "NO"),
    ("CC(C)(C)OC(=O)NCCCCC(NC(=O)C(Cc1c[nH]c2ccccc12)NC(=O)OCC1c2ccccc2-c2ccccc21)C(=O)N1CCCC1C(=O)NCC(N)=O (stereo not drawn) (Fmoc-WK(Boc)PG-NH2; configuration not given here)", "NO"),
    ("Nc1ncnc2c1ncn2[C@@H]1C[C@H]1CO", "NO"),
    ("NC1=NC(=O)C(CC(=O)Nc2ccc(Cl)cc2Cl)S1 (stereo not drawn)", "NO"),
    ("COc1ccc2c(c1)CCCN2S(=O)(=O)c1ccccc1[N+](=O)[O-]", "NO"),
    ("Cc1cc2c(c3oc(C4(C)OC4C4OC4C)cc(=O)c13)C(=O)c1c(O)c(C3CC(C)(N(C)C)C(O)C(C)O3)cc(C3CC(N(C)C)C(O)C(C)O3)c1C2=O (stereo not drawn)", "YES"),
    ("O=C(O)c1cc2ccccc2c(/N=N/c2ccc(S(=O)(=O)Nc3ncccn3)cc2)c1O", "NO"),
    ("CC12CCCCC1=[N+]([O-])C(C)(C)N2O (stereo not drawn)", "NO"),
]

* * *

# Test system: LOX IMVI
# experiment description: NCI tumour cell line growth inhibition, 48 h
Calls of active or inactive are those of the source. Rule as the data show it: active = GI50 up to about 1.1 µM and inactive = higher.
Labels: active, inactive

# compound, label
rows = [
    ("Fc1cccc(Cl)c1C1SCc2nc3ccccc3n21 (centres undefined)", "inactive"),
    ("Cc1nn(C(=O)Cc2ccccc2)c2c1C(c1ccccc1O)SC(=N)N2 (centres undefined)", "inactive"),
    ("CCC(=O)COc1ccc(NC(NC(=O)C(C(F)(F)F)C(F)(F)F)(C(F)(F)F)C(F)(F)F)cc1", "inactive"),
    ("COC(OC)C(C)CC(=O)N(C)C (centres undefined)", "inactive"),
    ("Cc1cccc(C)c1NC(=O)/C(Cl)=C(/Cl)C(=O)O", "inactive"),
    ("CCOC(=O)/C=C/CCO[Si](C)(C)C(C)(C)C", "inactive"),
    ("Cc1ccc([N+](=O)[O-])cc1NC(=O)C(=O)Cc1nc2ccc(C(=O)c3ccccc3)cc2nc1O", "inactive"),
    ("O=C1CSC(c2ccccc2)N1c1nc2cc3sc(N4C(=O)CSC4c4ccccc4)nc3cc2s1 (centres undefined)", "inactive"),
    ("CC1=NN(C(=O)CC(=O)Nc2ccc(Cl)cc2)C(=O)C1/N=N\\c1ccc(S(=O)(=O)c2ccc(/N=N/C3C(=O)N(C(=O)CC(=O)Nc4ccc(Cl)cc4)N=C3C)cc2)cc1 (centres undefined)", "inactive"),
    ("N=C(N)NS(=O)(=O)c1ccc(NC(=O)c2cccc3c(NNc4ccc(S(=O)(=O)N=C(N)N)cc4)c4ccccc4nc23)cc1", "inactive"),
    ("Cc1cc(Nc2ccc(S(=O)(=O)O)c3cc(S(=O)(=O)O)cc(S(=O)(=O)O)c23)c2ccccc2n1", "inactive"),
    ("CCOP(C)(=O)C(Nc1ccc(F)cc1)c1ccc(F)cc1 (centres undefined)", "inactive"),
    ("O=C1/C(=C/c2cc3c(=O)c4ccccc4sc3s2)NC(=S)N1c1ccccc1", "inactive"),
    ("C[C@]12CC[C@H]3[C@@H](CCC4=CC(=O)CC[C@@H]43)[C@@H]1CC[C@]2(O)C(N)=O", "inactive"),
    ("CCN1C/C(=C\\c2ccc(Cl)cc2)C2=NN(c3ccccc3)C(c3ccc(Cl)cc3)C2C1 (centres undefined)", "inactive"),
    ("Cc1cn(C2CC(O)C(Cn3nncc3Cn3cnc4c(N)ncnc43)O2)c(=O)[nH]c1=O (centres undefined)", "inactive"),
    ("CC1OC(O[C@H]2C3C=CO[C@@H](OC4OC(CO)C(O)C(O)C4O)C3[C@@]3(COC(=O)/C=C/c4ccc(O)cc4)O[C@@H]23)C(O)C(O)C1O (some centres undefined)", "inactive"),
    ("N=C(NC(=N)Nc1ccc(S(=O)(=O)Nc2cnc3ccccc3n2)cc1)Nc1ccc(Br)cc1", "inactive"),
    ("Nc1ccn(CCNCCn2cnc3nc(N)[nH]c(=O)c32)c(=O)n1", "inactive"),
    ("COC(=O)C(=O)C(C(=O)C(=O)Nc1ccc([N+](=O)[O-])cc1[N+](=O)[O-])c1nc2ccc([N+](=O)[O-])cc2nc1O (centres undefined)", "inactive"),
    ("COc1ccc2[nH]c3c([N+](=O)[O-])ccc(NCCN(C)C)c3/c(=N/CCN(C)C)c2c1", "inactive"),
    ("CC(NC(CC12CC3CC(CC(C3)C1)C2)C(N)=O)c1ccccc1 (centres undefined)", "inactive"),
    ("COc1cc(C2c3cc4c(cc3OC(C)(O)C2C)OCO4)cc(OC)c1OC (centres undefined)", "active"),
    ("CCOC1Oc2ccccc2-c2nc(SC)ncc21 (centres undefined)", "inactive"),
    ("c1ccc2c(c1)N[C@@H]1c3[nH]c4ccccc4c3CC[C@H]21", "inactive"),
    ("O=C1CC2[C@@H](N3CCCC3)CCC(N1Cc1ccccc1)C2(O)O (some centres undefined)", "inactive"),
    ("COC(=O)c1ccc2c(c1)CC1(C2)Cc2ccccc2C1=O (centres undefined)", "inactive"),
    ("CC(NNC(=O)c1ccncc1)c1ccc(Cl)c(Cl)c1 (centres undefined)", "inactive"),
    ("O=C(O)Cc1cccc2c(=O)cc(-c3ccccc3)oc12", "inactive"),
    ("CCCCc1ccc(Nc2nc(S)c3ncn(COCCO)c3n2)cc1", "inactive"),
    ("CN(C(=O)c1ccc(Cl)cc1)C(=S)N1CCN(c2ccccn2)CC1", "inactive"),
    ("C=C1C=CC2(Br)OC3CC(C)(Cl)C(Br)CC13C2(C)C (centres undefined)", "inactive"),
    ("C/C(=N\\Nc1ccc2ccccc2n1)c1ccccc1O", "inactive"),
    ("O=[N+]([O-])c1cc(C(F)(F)F)cc([N+](=O)[O-])c1CCl", "active"),
    ("CCOP(=O)(OCC)C(c1ccc(F)cc1)N(C(=O)NC(F)(F)F)c1ccc(F)cc1 (centres undefined)", "inactive"),
    ("COc1cc(C(O)C(=O)c2nc3ccc([N+](=O)[O-])cc3nc2O)ccc1O (centres undefined)", "inactive"),
    ("c1ccc(-c2c(-c3cccs3)[nH]c(-c3cccs3)c2-c2ccccn2)nc1", "inactive"),
    ("CC1=CC(C)(C)NN1C1=NS(=O)(=O)c2ccccc2N1C", "inactive"),
    ("c1ccc(/N=C(/Nc2ccccc2)N2CCCCC2)cc1", "inactive"),
]
